- Test system: NCI-H23
- Protocol: NCI tumour cell line growth inhibition, 48 h
Active and inactive are the calls of the source. Cut-off read from the data, not from the text of the source: active = GI50 up to about 1.1 µM and inactive = higher.
Reported metric: GI50

Task item: # lookup: GI50 of CCCCNS(=O)(=O)c1ccc(-c2ccc3c(c2)-c2ccc(S(=O)(=O)NCCCC)cc2S3(=O)=O)cc1
Reply: 12.7 µM (inactive)

Task item: Record: O=C(CSC1=NC(=O)C2(NN1)c1ccccc1-c1ccccc12)NC(=S)Nc1ccccc1
Reply: > 10 µM (inactive)

Task item: Record: CC1(C)C(=NNC(=S)NN)C(C)(C)C1=NNC(=S)NN
Reply: > 100 µM (inactive)

Task item: Record: OCc1ccccc1O[C@H]1O[C@H](CO)[C@@H](O)[C@H](O)[C@H]1O
Reply: > 100 µM (inactive)

Task item: Record: CS(C)(=O)=Nn1c(=O)n2n(c1=O)C1c3ccccc3C2c2ccccc21
Reply: > 100 µM (inactive)

Task item: Record: COc1c(O)cc2c3c(ccnc13)NC=C2
Reply: > 100 µM (inactive)

====

- Tested on: SK-OV-3
- Protocol: NCI tumour cell line growth inhibition, 48 h
Activity calls are given as the source filed them. Cut-off read from the data, not from the text of the source: active = GI50 up to about 1.1 µM and inactive = higher.
Outcome (select one): active, inactive

Compound | Group
CC(C)CC1C(=O)NCCC(NC(=O)C(N)Cc2ccc(O)cc2)C(=O)NC(Cc2ccccc2)C(=O)NC(Cc2ccccc2)NC1=O (configuration not stated) | inactive
Cc1cc2c(c(C(=O)O)c1C)-c1cccc(F)c1C2=O | inactive
N#CC(Sc1ccccc1)C(N)=O (configuration not stated) | inactive
CC(=O)Oc1cccc2c1C(=O)CCCC2 | inactive
Cc1c2nc3ccccc3sc-2cc(=O)c1C | inactive
Nc1ncnc2c1ncn2C1C=CC(COS(N)(=O)=O)C1 (configuration not stated) | inactive
Nc1nc2ccc3ccccc3c2[nH]1 | inactive
Clc1ccccc1C1=NN(c2ccccc2)C2c3cc(Br)ccc3OCC12 (configuration not stated) | inactive
NCCCN(CCCN(C(=O)Nc1ccccc1)c1ccccc1)C(=O)Nc1ccccc1 | inactive
O=[N+]([O-])c1ccc(C2NC(=S)NC3c4cc([N+](=O)[O-])ccc4CCCC23)cc1 (configuration not stated) | inactive

Task item: Called result for CSCCC(NCc1c(O)ccc2ccc(=O)oc12)C(=O)O (configuration not stated)
Reply: inactive

Task item: Record: Cc1cc(C)c2c(O)cc(-c3cccc(Cl)c3)nc2n1
Reply: active

Task item: Record: O[C@H]1[C@H]2[C@H](O)CCCN2C[C@H]1O [TRIDOLGOSIR]
Reply: inactive

Task item: Record: C=C(C)CN(CC#N)CC(=C)C
Reply: inactive

====

Each item that follows carries a reported GI50.
- System: LXFL 529
- Protocol: NCI tumour cell line growth inhibition, 48 h
Activity calls are given as the source filed them. Rule as the data show it: active = GI50 up to about 1.1 µM and inactive = higher.

Sample records with GI50:
Molecule | GI50
NC(=O)C12C3C4C1C1C2C3C41C(N)=O (stereo not drawn) | > 100 µM (inactive)
CCCCN(CCCC)CC(C(=O)Nc1ccc([N+](=O)[O-])cc1[N+](=O)[O-])/C(C)=N\NC(=O)C[N+](C)(C)C (stereo not drawn) | 74 µM (inactive)
O=C(CSSCC(=O)OCCS(=O)(=O)Nc1ccc(Br)cc1)OCCS(=O)(=O)Nc1ccc(Br)cc1 | 7.1 µM (inactive)
COC(=O)C1=C(C(=O)OC)C23C=CC=CC24C(C(=O)OC)=C(C(=O)OC)C4C1C3 (stereo not drawn) | 74.1 µM (inactive)
CCCNC1CC(n2cc(C)c(=O)[nH]c2=O)OC1CO (stereo not drawn) | > 100 µM (inactive)

Task item: # lookup: GI50 of CCOC(=O)/C(=C/c1ccc(C(=O)OC)cc1)N(CC)CC
Reply: 50.6 µM (inactive)

Task item: Record: COC(=O)CCC(NC(=S)N/N=C(\C)c1ccco1)C(=O)OC (stereo not drawn)
Reply: > 100 µM (inactive)

Task item: Record: C=C(C(=C)N1N=NC2C3CCC(C3)C21)N1N=NC2C3CCC(C3)C21 (stereo not drawn)
Reply: > 100 µM (inactive)
